Value source: patent US20150037339A1

STUDY_TARGET: activin Type II receptors
PROCEDURE_SUMMARY: cell-based or functional assay
MEASUREMENT_LABEL: EC50, activation of A204/CAGAx12-Luc cells (Smad 2/3-luciferase reporter) (pM)
Write it as a number; the unit pM goes unstated.

BINDER	RECORDED_MEASUREMENT
Activin AB, P08476 311-426; P09529 293-407 (ligand) chain 1: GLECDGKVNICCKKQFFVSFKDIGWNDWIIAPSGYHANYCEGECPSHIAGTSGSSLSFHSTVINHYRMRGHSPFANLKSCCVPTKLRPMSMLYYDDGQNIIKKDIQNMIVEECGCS chain 2: GLECDGRTNLCCRQQFFIDFRLIGWNDWIIAPTSYYGNYCEGSCPAYLAGVPGSASSFHTAVVNQYRMRGLNPGTVNSCCIPTKLSTMSMLYFDDEYNIVKRDVPNMIVEECGCA	19
Activin AC, P55103 237-352 (ligand, human) chain 1: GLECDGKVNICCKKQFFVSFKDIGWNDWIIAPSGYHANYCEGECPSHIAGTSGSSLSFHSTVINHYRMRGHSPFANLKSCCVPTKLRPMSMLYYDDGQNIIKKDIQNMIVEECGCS chain 2: GIDCQGGSRMCCRQEFFVDFREIGWHDWIIQPEGYAMNFCIGQCPLHIAGMPGIAASFHTAVLNLLKANTAAGTTGGGSCCVPTARRPLSLLYYDRDSNIVKTDIPDMVVEACGCS	4400

Please look at the following binder next.
INPUT: What EC50, activation of A204/CAGAx12-Luc cells (Smad 2/3-luciferase reporter) value was documented for this binder, Activin B, P09529 293-407 (ligand) GLECDGRTNLCCRQQFFIDFRLIGWNDWIIAPTSYYGNYCEGSCPAYLAGVPGSASSFHTAVVNQYRMRGLNPGTVNSCCIPTKLSTMSMLYFDDEYNIVKRDVPNMIVEECGCA ?
OUTPUT: 47
